Quick list: melting point per entry.
Counter-ions that a name gives are not always drawn.

**Q:** melting point for `O=C1NC(=O)c2ccc(I)cc2/C1=C/NCc1cc(O)c(-c2ccccc2)cn1` ?
**A:** 292 to 293 °C (dec.)

**Q:** melting point for CC1CN(C)[C@H](C)CN1c1ccc(N/C=C2\C(=O)NC(=O)c3ccc(Br)cc32)cc1 (stereo in doubt) ?
**A:** 184 to 185 °C

**Q:** melting point for `CC(=O)Nc1ccc(CN/C=C2\C(=O)NC(=O)c3ccc(Br)cc32)cc1O` ?
**A:** 252 to 253 °C

**Q:** melting point for `COC1CCN(Cc2ccc(N/C=C3\C(=O)NC(=O)c4ccc(-c5ccc(F)cc5)cc43)cc2)CC1` ?
**A:** 188 to 189 °C

**Q:** melting point for `Cl.O=C1NC(=O)c2ccc(Br)cc2C1=NNc1ccc(CN2CCCCC2)cc1` ?
**A:** 298 to 299 °C (dec.)

**Q:** melting point for `COc1cc(CN/C=C2\C(=O)NC(=O)c3ccc(Br)cc32)cc(OC(C)=O)c1OC` ?
**A:** 244 to 245 °C

**Q:** melting point for `CO[C@@H]1CCN(Cc2ccc(N/C=C3\C(=O)NC(=O)c4ccc(Br)cc43)cc2)C1` ?
**A:** 132 to 133 °C

**Q:** melting point for CN1CCN(c2ccc(N/C=C3\C(=O)NC(=O)c4ccc(-c5ccc(C=O)cc5)cc43)cc2)CC1 (hydrate or solvate) ?
**A:** 152 to 153 °C

**Q:** melting point for `CC(=O)Nc1ccc(CN/C=C2\C(=O)NC(=O)c3ccc(Br)cc32)cc1OC(C)=O` ?
**A:** 264 to 265 °C

**Q:** melting point for `CN1CCN(c2ccc(N/C=C3\C(=O)NC(=O)c4ccc(C#Cc5ccccc5)cc43)cc2)CC1` ?
**A:** 169 to 170 °C

**Q:** melting point for `O=C1NC(=O)c2ccc(I)cc2/C1=C/Nc1ccc(CN2CCOCC2)cc1` ?
**A:** 186 to 187 °C

**Q:** melting point for `O=C1NC(=O)c2ccc(Br)cc2/C1=C/Nc1ccc(CN2CCSC2)cc1` ?
**A:** 224 to 225 °C

**Q:** melting point for CC(=O)Nc1ccc(CN/C=C2\C(=O)NC(=O)c3ccc(I)cc32)cc1O (as salt: potassium) ?
**A:** 345 to 346 °C

**Q:** melting point for `O=C1NC(=O)c2ccc(Br)cc2/C1=C/Nc1ccc(CN2CCCC2)cc1` ?
**A:** 165 to 166 °C

**Q:** melting point for `COC[C@@H]1CCCN1Cc1ccc(N/C=C2\C(=O)NC(=O)c3ccc(I)cc32)nc1` ?
**A:** 185 to 186 °C

**Q:** melting point for `COc1ccc(CN/C=C2\C(=O)NC(=O)c3cccc(Br)c32)cc1O` ?
**A:** 204 to 206 °C

====

MEASUREMENT_DESCRIPTION: I.V. and P.O. Dosing in Mice
Assay type: in vivo
MEASUREMENT_PARAMETERS: mouse, in vivo, po, 50 mg/kg, po 50 mg/kg vs i.v. 2 mg/kg, second value, (methocel/tween)
READOUT_NAME: bioavailability (%)
Report the value in % with no unit label.

**Q:** bioavailability for `CCCOc1cnc(CNC=C2C(=O)NC(=O)c3ccc(I)cc32)cc1O` ?
**A:** 1.4

Data provenance: patent US7713994B2
